Published IC50 for Tyrosine-protein kinase ABL2 (Homo sapiens), assembled from different documents, is shown next.

The examples below pair each entry with its known result.
Sample Smiles	Assayed System	IC50
CC(C)(C)NS(=O)(=O)c1cncc(-c2ccn3nc(N)nc3c2)c1	Tyrosine-protein kinase ABL2 (Homo sapiens)	> 10000 nM
O=C(Nc1ccc(Nc2ccnc3[nH]c(=O)c4ccccc4c23)cc1)c1ccc(F)cc1C(F)(F)F	Tyrosine-protein kinase ABL2 (Homo sapiens)	863 nM

[in] Need IC50 of "COc1cc(Nc2c(C#N)cnc3cc(OCCCN4CCN(C)CC4)c(OC)cc23)c(Cl)cc1Cl" , thanks.
[out] 0.5 nM
